- SYSTEM_TESTED: T1, p53-TAD (residues 1-73), N-terminal domain of p53 (UniProt P04637 1-73)
- T1 construct: cleaved protein of 8.6 kDa; plasmid a gift of G. Daughdrill; Used unlabelled or 15N-labelled; also called p53 (1-73); p53 N-terminal domain; source: bacterial cells in M9 media, purified (Ni-NTA, thrombin digestion, Superdex 75)
- PROCEDURE_SUMMARY: other fluorescence titration; tryptophan fluorescence of p53 (1-73), excitation 295 nm; Peptide 1 0 to 12.0 uM added to 2 uM p53; 20 mM Tris-HCl, 15 mM NaCl, 20 mM CaCl2, 20 mM DTT, 0.1% NaN3, pH 7.2
- DETAILS: both partners purified
MEASUREMENT_NAME: Kd

[ask] Report Kd for YGRKKRRQRRRVVLVAALTVACNNFFWE (HIV-TAT cell-penetrating segment derived from the TAT protein of human immunodeficiency virus; S100A1, human, C-terminal residues 76 to 92 (17 residues); 28 residues; the TAT segment stands N-terminal of the S100A1 stretch; also called fusion peptide; source: synthetic peptide, bought: Kelowna International Scientific Inc., >= 95% purity) [Peptide 1 (HIV-TAT + S100A1 derived peptide)]
[reply] ~590 nM

Data origin, for the record: paper PMC7272100
